# measurement target: T1, recombinant human ADAMTS5 (R&D Systems cat #2198-AD) (human, UniProt Q9UNA0 262-622, limits assumed)
# T1 sequence: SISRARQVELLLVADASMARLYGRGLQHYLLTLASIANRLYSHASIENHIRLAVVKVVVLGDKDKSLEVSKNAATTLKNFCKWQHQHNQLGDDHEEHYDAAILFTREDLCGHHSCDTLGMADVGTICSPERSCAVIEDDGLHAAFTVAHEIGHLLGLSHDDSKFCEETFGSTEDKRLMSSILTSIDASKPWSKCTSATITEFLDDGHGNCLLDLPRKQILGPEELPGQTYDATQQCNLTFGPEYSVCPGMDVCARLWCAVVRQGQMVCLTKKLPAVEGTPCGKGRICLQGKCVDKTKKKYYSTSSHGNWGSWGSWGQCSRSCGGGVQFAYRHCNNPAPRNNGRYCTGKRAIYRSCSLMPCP
# protocol summary: cell-based or functional assay
Consider the following binders; for each one, report its FRET assay vi (U/min), periplasmic extract.

Q: What does the record list as FRET assay vi (U/min), periplasmic extract for Nanobody 2A12 (VHH, tagged as tested (anti-Flag detection, IMAC); also called 02A12) VHH: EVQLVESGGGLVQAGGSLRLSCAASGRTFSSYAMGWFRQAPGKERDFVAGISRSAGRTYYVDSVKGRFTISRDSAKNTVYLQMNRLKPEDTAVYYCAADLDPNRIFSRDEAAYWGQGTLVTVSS ?
Result: -1 U/min

Q: What does the record list as FRET assay vi (U/min), periplasmic extract for Nanobody 3F04 (VHH, tagged as tested (anti-Flag detection, IMAC); also called 03F04) VHH: EVQLVESGGGSVQAGGSLRLSCVASGRYPMAWFRQAPGKEREFVAGVSWGGDRTYYADSVQGRFTVSRDYAKNTLYLQMNSLKPEDAAVYYCAGDPWGRLFRVKDNYSDWGQGTLVTVSS ?
Result: 19 U/min

Q: What does the record list as FRET assay vi (U/min), periplasmic extract for Nanobody 2G01 (VHH, tagged as tested (anti-Flag detection, IMAC); also called 02G01) VHH: EVQLVESGGGLVQAGGSLRLSCAASGRTTFSSYAMGWFRQAPGKERAFVATIWSGGLTVYADSAKGRFTISRDNAKNTVYLQMNSLRPEDTAVYYCAAEAVGTYYTPDGWTYWGQGTLVTVSS ?
Result: 10 U/min

Q: What does the record list as FRET assay vi (U/min), periplasmic extract for Nanobody 3B02 (VHH, tagged as tested (anti-Flag detection, IMAC); also called 03B02; 3B2) VHH: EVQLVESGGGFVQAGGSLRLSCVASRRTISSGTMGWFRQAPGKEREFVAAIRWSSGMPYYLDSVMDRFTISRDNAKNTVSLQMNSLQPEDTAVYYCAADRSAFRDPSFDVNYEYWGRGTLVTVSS ?
Result: -1 U/min
